The reported measurements were obtained from the PETadex activity labels (doi:10.1038/s41586-022-04599-z).

substrate: PET; test: Proxy for plastic degradation [Released monomer concentration (HPLC/LC-MS) (MHET+TPA)]; details: pH 6.5; 40 °C; part of the chain shown
Quantity Kind: Proxy for plastic degradation (mM)
Give your result in mM as a bare value.

In: Endpoint output: Proxy for plastic degradation of unnamed (protein) QTNPYARGPNPTAASLEASAGPFTVRSFTVSRPSGYGAGTVYYPTNAGGTVGAIAIVPGYTARQSSIKWWGPRLASHGFVVITIDTNSTLDQPESRSSQQMAALRQVASLNGTSSSPIYGKVDTARMGVMGWSMGGGGSLISAANNPSLKAAAPQAPWHSSTNFSSVTVPTLIFACENDSIAPVNSSALPIYDSMSRNAKQFLEINGGSHSCANSGNSNQALIGKKGVAWMKRFMDNDTRYSTFACENPNSTAVSDFRTANCSLEHHHHHH . Value?
Out: 0.5

In: Quick one: Proxy for plastic degradation of unnamed (protein) QTNPYARGPNPTAASLEASAGPFTVRSFTVSRPSGYGAGTVYYPTNAGGTVGAIAIVPGYTARQSSIKWWGPRLASHGFVVITIDTNSTLDQPESRSSQQMAALRQVASLNGTSSSPIYGKVDTARMGVMGWSMGGGGSLISAANNPSLKAAAPQAPWHSSTNFSSVTVPTLIFACENDSIAPVNSSALPIYDSMSQNAKQFLEIKGGSHSCANSGNSNQALIGKKGVAWMKRFMDNDTRYSTFACENPNSTAVSDFRTANCSLEHHHHHH ?
Out: 1

In: Please look up its Proxy for plastic degradation: unnamed (protein) QTNPYARGPNPTAASLEASAGPFTVRSFTVSRPSGYGAGTVYYPTNAGGTVGAIAIVPGYTARQSSIKWWGPRLASHGFVVITIDTNSTLDQPSSRSSQQMAALRQVASLNGTSSSPIYGKVDTARMGVMGWSMGGGGSLISAANNPSLKAAAPQAPWDSSTNFSSVTVPTLIFACENDSIAPVNSSALPIYDSMSRNAKQFLEINGGSHSCANSGNSNQALIGKKGVAWMKRFMDNDTRYSTFACENPNSTRVSDFRTANCSLEHHHHHH
Out: 0

In: Item unnamed (protein) QTNPYARGPNPTAASLEASAGPFTVRSFTVSRPSGYGAGTVYYPTNAGGTVGAIAIVPGYTARQSSIKWWGPRLASHGFVVITIDTNSTFDYPSSRSSQQMAALRQVASLNGDSSSPIYGKVDTARMGVMGHSMGGGASLRSAANNPSLKAAIPQAPWDSQTNFSSVTVPTLIFACENDSIAPVNSHALPIYDSMSRNAKQFLEINGGSHSCANSGNSNQALIGKKGVAWMKRFMDNDTRYSTFACENPNSTAVSDFRTANCSLEHHHHHH has what recorded Proxy for plastic degradation?
Out: 0
